Cited source for all entries: ChEMBL document CHEMBL4038268

Experiment: Half life in mouse at 3 mg/kg, iv
Format: ADME, organism-based
Conditions: in vivo
Parameter half-life: see the listing below.
Remember to quote the unit after the number.

Solved cases (3 shown):
CCS(=O)(=O)Nc1ccc(Oc2ccc(F)cc2)c(-c2cn(C)c3c(=O)[nH]ccc23)c1; 5.6 h
Cn1cc(-c2cc(S(C)(=O)=O)ccc2Oc2ccc(F)cc2F)c2cc[nH]c(=O)c21; 2.5 h
Cc1[nH]c(-c2cc(S(C)(=O)=O)ccc2Oc2ccc(F)cc2F)c2c1C(=O)NCC2; 1.3 h

Moving on to another molecule below.
// query Which measured half-life value corresponds to `Cc1[nH]c(-c2cc(NS(C)(=O)=O)ccc2Oc2ccccc2)c2c1C(=O)CCC2` ?
// result 0.6 h
